Assay: folding enthalpy; higher = less favourable; fluorescence melt of hairpins on a sequencing array, two-state fit
Settings: sodium 0.088 M
Category scheme (folding enthalpy): range 1 = under -30 kcal/mol, range 2 = from -30 kcal/mol up to -20 kcal/mol, range 3 = -20 kcal/mol and over

Q. Please classify: GGACCAGGAAACTGATCC (((.(((....))).)))
A. range 1

Q. Please classify: GAGTTCGAAAGAACTC ((((((....))))))
A. range 1

Q. Please classify: GCGAGGACGAAAGTCCGC (((..(((....))))))
A. range 3

Q. Please classify: GTGGTTCCGAAAGGACAC (((..(((....))))))
A. range 3

Q. Please classify: GATCCTCACTAGGATC ((((((....))))))
A. range 1

Q. Please classify: GTCCCTGGAAACAGGAAC ((.((((....)))).))
A. range 2

Q. Please classify: AGATCGAAAGATCT (((((....)))))
A. range 2

Q. Please classify: GAACGCGAAAGCGTATTC ((((((....)))..)))
A. range 3

Q. Please classify: GGCGCTTCGAAAGAAGCC (((..(((....))))))
A. range 3

Q. Please classify: GGCGTAGGAAACTGCGCC ((((.((....)).))))
A. range 1

Q. Please classify: GTTAATCGAAAGATAAAC (((.(((....))).)))
A. range 2

Q. Please classify: GACGCCGAAAGGCTGGTC ((((((....)))..)))
A. range 3

Q. Please classify: GATAGTGGAAACACTATC (((((((....)))))))
A. range 1

Q. Please classify: GCAGCGCGAAAGCAATGC (((..((....))..)))
A. range 2

Q. Please classify: GCTCAGGGAAACCCAAGC (((..((....))..)))
A. range 3

Q. Please classify: GCGATTATTCGC ((((....))))
A. range 2

Q. Please classify: GTTACCGGAAACGGCAAC (((.(((....))).)))
A. range 2

Q. Please classify: GAAGTGGGAAACCACTCC (.(((((....))))).)
A. range 3

Q. Please classify: GCTGGGCGAAAGCGGAGC (((..((....))..)))
A. range 3

Q. Please classify: GTACAGGGAAACCCGTAC ((((.((....)).))))
A. range 2

Q. Please classify: GCGACGCGAAAGCGAAGC ((..(((....)))..))
A. range 1

Q. Please classify: GGTGTAGGAAACTATACC (((.(((....))).)))
A. range 1

Q. Please classify: GATCCATCTCTGGATC ((((((....))))))
A. range 1

Q. Please classify: GCATTGGGAAACCAATAC (.(((((....))))).)
A. range 3

Q. Please classify: GGGGTGGGAAACCGCCTC (.((.((....)).)).)
A. range 3

Q. Please classify: GGCGAGAAATCGCC (((((....)))))
A. range 2

Q. Please classify: GATCCATCAGTGGATC ((((((....))))))
A. range 1

Q. Please classify: GGCATTCGAAAGAACGCC (((.(((....))).)))
A. range 1

Q. Please classify: GTGCACGAAAGTGTGCAC ((((((....)))..)))
A. range 1

Q. Please classify: GCGGGATCCGC ((((...))))
A. range 3

Q. Please classify: GATCCCTTGAGGGATC ((((((....))))))
A. range 1

Q. Please classify: GATCGTGATTACGATC ((((((....))))))
A. range 1

Q. Please classify: GATATCGAAAGATATC ((((((....))))))
A. range 1

Q. Please classify: CGAGCGGAAACGCTTCG ((((((....))).)))
A. range 3

Q. Please classify: GTTCTAGGAAACCAGAAC (((((.(....).)))))
A. range 2

Q. Please classify: GTAACCGAAAGGTGTTAC ((((((....)))..)))
A. range 3

Q. Please classify: GCTGGGGGAAACTCCGGC ((.((.(....).)).))
A. range 1

Q. Please classify: CGCGGAAGAATCCGCG ((((((....))))))
A. range 1

Q. Please classify: GGGTATGGAAACATGTCC ((..(((....)))..))
A. range 3

Q. Please classify: GATCGACTTATCGATC ((((((....))))))
A. range 1

Q. Please classify: GCTAGAGGAAACTCTAGC (((((((....)))))))
A. range 1
